# Target system: hBPGM (Homo sapiens)
# Assay notes: BPGM synthase assay
# Type: biochemical
# Experimental conditions: Table 6; read-out: huBPGM: synthase Enzyme IC50
pIC50: −log10 of the molar value.
Value kind: pIC50

The examples below pair each entry with its known result.
[ask] Input Cc1nc(CNC(=O)c2ccn(C)n2)sc1-c1csc(-c2cc(F)c(O)c(F)c2F)n1 [Example 106] , output reported pIC50.
[reply] 6.48

[ask] Quickly give me recorded pIC50 for Cc1nc(COc2ncccn2)sc1-c1cccc(-c2cc(F)c(O)c(F)c2F)c1 [Example 148]
[reply] 5.92

[ask] Give the reported value of pIC50 for this record: Cc1nc(COCC(=O)N2CCC(O)C2)sc1-c1cccc(-c2cc(F)c3nn[nH]c3c2F)n1 (stereo not shown) [Example 76]
[reply] 5.96

[ask] Please list pIC50 recorded for the compound Cc1nc(COc2ncccn2)sc1-c1cccc(-c2ccc(C#N)c(O)c2)n1 [Example 158]
[reply] 6.62

[ask] Give pIC50 for Cc1nc(CNc2ncccn2)sc1-c1csc(-c2cc(F)c(O)c(F)c2F)n1 [Example 165]
[reply] 7.04

I: Cc1nc(CNc2ncccn2)sc1-c1csc(-c2cc(F)c3[nH]nnc3c2F)n1 [Example 51]
II: CC(=O)NCc1nc(C)c(-c2csc(-c3cc(F)c(O)c(F)c3F)n2)s1 [Example 96]
[ask] // task: argmin of pIC50 over [ I , II ] Let me know the label of the one you choose.
[reply] II
(II: 5.80, I: 6.55)

a: Cc1nc(COc2ncccn2)sc1-c1cccc(-c2ccc(C(=O)NS(=O)(=O)c3ccccc3)cc2)n1 [Example 157]
b: Cc1nc(COc2ccccn2)sc1-c1csc(-c2cc(F)c3[nH]nnc3c2)n1 [Example 100]
[ask] Between a and b , whose recorded pIC50 is greater? Identify your selection by its label.
[reply] a

###

# Target system: hBPGM (Homo sapiens, UniProt P07738)
# Sequence (P07738 whole entry): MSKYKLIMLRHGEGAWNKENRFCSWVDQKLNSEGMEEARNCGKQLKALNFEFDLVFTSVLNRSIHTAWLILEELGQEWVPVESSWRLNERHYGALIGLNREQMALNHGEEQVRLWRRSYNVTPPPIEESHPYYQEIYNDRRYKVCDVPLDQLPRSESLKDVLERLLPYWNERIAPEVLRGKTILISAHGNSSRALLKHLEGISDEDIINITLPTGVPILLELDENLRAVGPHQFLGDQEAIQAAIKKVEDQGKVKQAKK
# Assay notes: BPGM synthase assay
# Assay type: biochemical
# Experimental conditions: Table 6; read-out: huBPGM: synthase Enzyme IC50
pIC50: −log10 of the molar value.
Value kind: pIC50

Worked cases, answers included:
[ask] Consider the compound "Cc1nc(COc2ncccn2)sc1-c1cnn(-c2cc(F)c(O)c(F)c2F)c1" . State its measured pIC50.
[reply] 5.41

[ask] For "Cc1nc(COc2ncccn2)sc1-c1cccc(-c2cc(F)c(O)c(F)c2F)n1" , write its pIC50.
[reply] 6.55

[ask] Read the entry "CC(=O)N(C)Cc1nc(C)c(-c2cccc(-c3cc(F)c4nn[nH]c4c3F)n2)s1" and write its reported pIC50.
[reply] 6.55

P: CCc1cnc(OCc2nc(C)c(-c3cccc(-c4cc(F)c5nn[nH]c5c4F)n3)s2)nc1
Q: Cc1nc(COCC(=O)N2CCN(CCO)CC2)sc1-c1csc(-c2cc(F)c(O)c(F)c2F)n1
R: Cc1nc(COCC(=O)N(C)C)sc1-c1csc(-c2cc(F)c3[nH]nnc3c2F)n1
S: Cc1cnc(OCc2nc(C)c(-c3cccc(-c4cc(F)c5nn[nH]c5c4)n3)s2)nc1C
[ask] // smallest pIC50 at index 0, largest at the end Write the labels, ordered according to the request.
[reply] Q, P, S, R

###

Entries and their measured pIC50 follow.
# Target system: hBPGM (Homo sapiens)
# Assay notes: BPGM synthase assay
# Assay type: biochemical
# Experimental conditions: Table 6; read-out: huBPGM: synthase Enzyme IC50
pIC50: −log10 of the molar value.

[ask] Find the measured pIC50 of Cc1nc(COc2ncccn2)sc1-c1cccc(-c2ccc(-c3n[nH]c(=O)o3)cc2)n1 [Example 161] with hBPGM (Homo sapiens) as test system.
[reply] < 4.60

Continuing:
[ask] State the measured pIC50 (hBPGM (Homo sapiens)) of Cc1nc(COc2ncccn2)sc1-c1cccc(-c2cc(F)c3nnn(C)c3c2)n1 [Example 150]
[reply] < 4.00

[ask] Please report pIC50 with hBPGM (Homo sapiens) for item COC(=O)NCc1nc(C)c(-c2csc(-c3ccc(C4SC(=O)NC4=O)cc3)n2)s1 (stereo not shown) [Example 204] .
[reply] < 4.60

[ask] Report pIC50 on hBPGM (Homo sapiens) for this entry: Cc1nc(COc2ncccn2)sc1-c1cccc(Nc2ccc3[nH]nnc3c2)n1 [Example 229]
[reply] < 4.60
